// reported HPLC elution per item
# PROTOCOL SUMMARY: Analytical reversed-phase HPLC elution (hydrophobicity)
# Format: physicochemical
# STATED CONDITIONS: Table S1; analytical RP-HPLC, SunFire C18, water/ACN + 0.1% TFA, 5 to 100% B linear over 30 min, 1 mL/min, UV 220 nm; approximate comparison of hydrophobicity
Square brackets hold non-standard residues; d marks the D form. Peptide text beside a SMILES is read from it. Nspe = C[C@H](NCC(=O)O)c1ccccc1; Nlys = NCCCCNCC(=O)O
Write the value in % MeCN as a bare number.

{"COMPOUND": "C[C@H](NCC(=O)N(CCCCN)CC(=O)N(CCCCN)CC(=O)N(CC(=O)N(CCCCN)CC(=O)N(CC(=O)N(CC(=O)N(CCCCN)CC(=O)N(CC(=O)N(CC(=O)N(CCCCN)CC(=O)N(CC(N)=O)[C@@H](C)c1ccccc1)[C@@H](C)c1ccccc1)[C@@H](C)c1ccccc1)[C@@H](C)c1ccccc1)[C@@H](C)c1ccccc1)[C@@H](C)c1ccccc1)c1ccccc1 [peptoid 56] (H-[Nspe][Nlys][Nlys][Nspe][Nlys][Nspe][Nspe][Nlys][Nspe][Nspe][Nlys][Nspe]-NH2)", "HPLC elution [% MeCN]": 48.0}

--- query ---
In plain terms, `C[C@@H](c1ccccc1)N(CC(N)=O)C(=O)CN(CCCCN)C(=O)CN(C(=O)CN(CCCCN)C(=O)CN(CCCCN)C(=O)CN(C(=O)CN(C(=O)CN(CCCCN)C(=O)CN(C(=O)CN(C(=O)CN(CCCCN)C(=O)CNCCc1c[nH]c2ccccc12)[C@@H](C)c1ccccc1)[C@@H](C)c1ccccc1)[C@@H](C)c1ccccc1)[C@@H](C)c1ccccc1)[C@@H](C)c1ccccc1` has a documented HPLC elution of 48.7

* * *

# Test system: rat erythrocytes
# PROTOCOL SUMMARY: Hemolysis assay
# Type: cell-based
# STATED CONDITIONS: red cells of rat
Square brackets hold non-standard residues; d marks the D form. Peptide text beside a SMILES is read from it. Gly(N(CH2)2(3-indolyl)) = O=C(O)CNCCc1c[nH]c2ccccc12; Nspe = C[C@H](NCC(=O)O)c1ccccc1; Nlys = NCCCCNCC(=O)O
// reported HC10 per item
Write the value in µM as a bare number.

Reference set, count: 2
{"COMPOUND": "C[C@@H](c1ccccc1)N(CC(N)=O)C(=O)CN(C(=O)CN(CCCCN)C(=O)CN(C(=O)CN(C(=O)CN(CCCCN)C(=O)CN(C(=O)CN(C(=O)CN(CCCCN)C(=O)CN(CCc1c[nH]c2ccccc12)C(=O)CN(CCc1c[nH]c2ccccc12)C(=O)CNCCCCN)[C@@H](C)c1ccccc1)[C@@H](C)c1ccccc1)[C@@H](C)c1ccccc1)[C@@H](C)c1ccccc1)[C@@H](C)c1ccccc1 [14-AcOH]", "HC10 (µM)": 14.9}
{"COMPOUND": "C[C@@H](c1ccccc1)N(CC(=O)N(CCCCN)CC(=O)N(CCc1c[nH]c2ccccc12)CC(=O)N(CCc1c[nH]c2ccccc12)CC(N)=O)C(=O)CN(CCCCN)C(=O)CN(CCCCN)C(=O)CN(C(=O)CN(C(=O)CN(CCCCN)C(=O)CN(C(=O)CN(C(=O)CNCCCCN)[C@@H](C)c1ccccc1)[C@@H](C)c1ccccc1)[C@@H](C)c1ccccc1)[C@@H](C)c1ccccc1 [peptoid 29] (H-[Nlys][Nspe][Nspe][Nlys][Nspe][Nspe][Nlys][Nlys][Nspe][Nlys][Gly(N(CH2)2(3-indolyl))][Gly(N(CH2)2(3-indolyl))]-NH2)", "HC10 (µM)": 88.6}

--- query ---
In plain terms, C[C@@H](c1ccccc1)N(CC(N)=O)C(=O)CN(C(=O)CN(CCCCN)C(=O)CN(C(=O)CN(C(=O)CN(CCCCN)C(=O)CN(C(=O)CN(C(=O)CN(CCCCN)C(=O)CN(CCc1c[nH]c2ccccc12)C(=O)CN(C(=O)CNCCCCN)[C@@H](C)c1ccccc1)[C@@H](C)c1ccccc1)[C@@H](C)c1ccccc1)[C@@H](C)c1ccccc1)[C@@H](C)c1ccccc1)[C@@H](C)c1ccccc1 [peptoid 10] has a documented HC10 of 6.9

FYI, the data here is from paper PMC10460844.
